Values compiled from paper PMC9482650.

target: MAGI2_5, Q86UL8; assay: holdup assay; design: key: below the threshold = too weak to quantify, mostly under pKd 3.1 to 4; settings: plain residues with an end cap or a label only (N-terminal biotin on a linker: ado-ado)
Sequence (Q86UL8 915-1017): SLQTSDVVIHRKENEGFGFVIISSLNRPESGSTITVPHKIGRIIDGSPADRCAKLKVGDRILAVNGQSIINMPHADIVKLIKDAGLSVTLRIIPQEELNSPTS
measured.attribute: pKd

Consider the reported pKd for these binders:
PPYRHRNTVV [ERBB4, Q15303]    below the threshold
LRSPRTPSEV [OR10G3, Q8NGC4]    below the threshold
KKAPTNEFYA [SDC4, P31431]    below the threshold
VRNLPESEEL [MYOZ3, Q8TDC0]    below the threshold
GNSVLKSTQF [SLC22A12, Q96S37]    4.3
SNAGNTATKA [NOSTRIN, Q8IVI9]    below the threshold
EKKTLIGIKL [GOT1L1, Q8NHS2]    below the threshold
LPHPHSTTRV [NLGN2, Q8NFZ4]    below the threshold
TKGPRGPTRV [SAPCD1, Q5SSQ6]    below the threshold
SGSLKLMTTV [DACT1, Q9NYF0]    4.51

Looking for the measured pKd of SAKVRTVTSV [RASL11B, Q9BPW5] , can you help?
below the threshold

Looking for the measured pKd of NLSIEKETKL [ASNSD1, Q9NWL6] , can you help?
below the threshold

Looking for the measured pKd of RHGSCVETSL [TMEM151B, Q8IW70] , can you help?
4.22

Looking for the measured pKd of YYKRPVQEWV [MMP24, Q9Y5R2] , can you help?
below the threshold

Looking for the measured pKd of SKSNFGSEPL [KIF17, Q9P2E2] , can you help?
below the threshold

Looking for the measured pKd of PLSPEQPTKL [TRIM50, Q86XT4] , can you help?
below the threshold
